# testSystem: CathepsinG, from human neutrophils (Homo sapiens)
# Sequence (P08311 21-244): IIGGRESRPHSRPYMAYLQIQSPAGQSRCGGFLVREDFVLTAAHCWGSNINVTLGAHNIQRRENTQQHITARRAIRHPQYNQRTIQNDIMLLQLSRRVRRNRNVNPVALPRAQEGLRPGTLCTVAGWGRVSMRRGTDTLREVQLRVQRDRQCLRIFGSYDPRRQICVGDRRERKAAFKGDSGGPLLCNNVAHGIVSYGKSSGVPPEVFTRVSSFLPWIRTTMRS
# assayExplanation: Enzymatic assay, cathepsin G
# assayConditions: Cathepsin G IC50
Where a SMILES comes first, the peptide text is derived from it.
Can you tell me pIC50 for the items I'm about to list?
Quick note: pIC50 means taking -log10 of the concentration in moles per liter.

Request: Value lookup for pIC50; key = C[C@@H](O)[C@@H]1NC(=O)[C@@H]2CSSC[C@H](NC(=O)[C@H](CC3CCCCC3)NC(=O)[C@@H]3CCCN3C(=O)[C@@H]3CCCN3C(=O)[C@H](CC(=O)O)NC(=O)[C@H](CO)NC(=O)[C@H](CCCCN)NC1=O)C(=O)N[C@@H](CO)C(=O)N1CCC[C@@H]1C(=O)N1CCC[C@H]1C(=O)N[C@@H](Cc1ccccc1)C(=O)N2 [Ex. 16] (HELM PEPTIDE1{F.C.T.K.S.D.P.P.[Cha].C.S.[dP].P}$PEPTIDE1,PEPTIDE1,2:R3-10:R3|PEPTIDE1,PEPTIDE1,1:R1-13:R2$$$V2.0)
Response: 7.18

Request: Repeat with CCCC[C@@H]1NC(=O)[C@@H]2CCCN2C(=O)[C@H]2CCCN2C(=O)[C@H](Cc2ccc(O)cc2)NC(=O)[C@@H]2CSSC[C@H](NC1=O)C(=O)N[C@@H]([C@@H](C)O)C(=O)N[C@@H](C)C(=O)N[C@@H](CO)C(=O)N[C@@H]([C@@H](C)CC)C(=O)N1CCC[C@H]1C(=O)N1CC(NC(=O)c3ccccc3)C[C@H]1C(=O)N[C@@H](CCC(N)=O)C(=O)N2 (single isomer, unassigned) [Ex. 138]
Response: 4.36

Request: Repeat with CC[C@H](C)[C@@H]1NC(=O)[C@@H]2CCCN2C(=O)[C@@H]2CCCN2C(=O)[C@H](CC(=O)O)NC(=O)[C@H](CO)NC(=O)[C@H](CCCCN)NC(=O)[C@H]([C@@H](C)O)NC(=O)[C@@H]2CSSC[C@H](NC1=O)C(=O)N[C@@H](CC(N)=O)C(=O)N1CCC[C@@H]1C(=O)N1CCC[C@H]1C(=O)N[C@@H](CC1CCCCC1)C(=O)N2 [Ex. 33] (HELM PEPTIDE1{[Cha].C.T.K.S.D.P.P.I.C.N.[dP].P}$PEPTIDE1,PEPTIDE1,2:R3-10:R3|PEPTIDE1,PEPTIDE1,1:R1-13:R2$$$V2.0)
Response: 7.35

Request: Repeat with CCCCCC[C@@H]1NC(=O)[C@@H]2CCCN2C(=O)[C@H]2CCCN2C(=O)[C@H](Cc2ccc(O)cc2)NC(=O)[C@@H]2CSSC[C@H](NC1=O)C(=O)N[C@@H]([C@@H](C)O)C(=O)N[C@@H](C)C(=O)N[C@@H](CO)C(=O)N[C@@H]([C@@H](C)CC)C(=O)N1CCC[C@H]1C(=O)N1CCC[C@H]1C(=O)N[C@@H](CCC(N)=O)C(=O)N2 [Ex. 99] (HELM PEPTIDE1{[CCCCCC[C@H](N[*:1])C(=O)[*:2]].C.T.A.S.I.P.P.Q.C.Y.[dP].P}$PEPTIDE1,PEPTIDE1,2:R3-10:R3|PEPTIDE1,PEPTIDE1,1:R1-13:R2$$$V2.0)
Response: 4.07
